Biological target: various mutants of kinase EGFR (BaF3 cell lines stably transfected with kinase) (Homo sapiens, UniProt P00533, T790M, form not given)
Construct: other: BaF3 cells stably transfected with EGFR Δ19Del/T790M; MTS, 48 h; other: BaF3 cell line stably transfected with EGFR Δ19Del/T790M; MTS, 48
Sequence (P00533 with tags, fused parts or gaps DEL746-750/T790M, form open): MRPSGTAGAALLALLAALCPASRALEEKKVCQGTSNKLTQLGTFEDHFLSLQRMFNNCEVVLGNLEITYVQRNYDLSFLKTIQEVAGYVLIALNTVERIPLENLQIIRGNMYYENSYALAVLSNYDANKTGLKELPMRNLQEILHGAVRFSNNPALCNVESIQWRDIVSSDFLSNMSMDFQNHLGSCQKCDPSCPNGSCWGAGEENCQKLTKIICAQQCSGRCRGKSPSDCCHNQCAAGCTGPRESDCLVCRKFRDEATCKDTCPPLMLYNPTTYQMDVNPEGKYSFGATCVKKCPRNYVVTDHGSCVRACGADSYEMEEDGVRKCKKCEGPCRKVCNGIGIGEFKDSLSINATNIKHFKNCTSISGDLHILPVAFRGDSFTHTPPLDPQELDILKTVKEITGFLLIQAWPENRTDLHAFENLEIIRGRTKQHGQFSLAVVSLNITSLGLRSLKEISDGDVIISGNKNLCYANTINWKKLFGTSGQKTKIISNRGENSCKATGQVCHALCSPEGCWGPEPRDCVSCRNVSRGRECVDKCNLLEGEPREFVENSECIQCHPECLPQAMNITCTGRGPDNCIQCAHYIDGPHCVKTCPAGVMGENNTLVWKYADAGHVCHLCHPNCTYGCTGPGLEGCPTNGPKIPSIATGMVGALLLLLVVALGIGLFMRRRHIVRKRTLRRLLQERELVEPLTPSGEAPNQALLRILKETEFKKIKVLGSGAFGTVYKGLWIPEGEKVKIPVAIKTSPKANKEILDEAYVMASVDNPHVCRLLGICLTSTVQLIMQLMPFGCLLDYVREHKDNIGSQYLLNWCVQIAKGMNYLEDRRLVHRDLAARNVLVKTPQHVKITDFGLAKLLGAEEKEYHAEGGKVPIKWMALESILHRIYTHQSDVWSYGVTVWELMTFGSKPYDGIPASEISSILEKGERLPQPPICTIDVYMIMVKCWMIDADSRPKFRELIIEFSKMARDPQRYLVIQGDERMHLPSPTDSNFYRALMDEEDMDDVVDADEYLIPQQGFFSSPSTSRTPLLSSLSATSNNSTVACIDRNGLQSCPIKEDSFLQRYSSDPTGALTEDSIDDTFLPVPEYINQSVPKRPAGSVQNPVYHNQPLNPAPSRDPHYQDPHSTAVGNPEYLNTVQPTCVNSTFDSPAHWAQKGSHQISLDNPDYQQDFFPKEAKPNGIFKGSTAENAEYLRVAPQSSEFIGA
Experiment: Growth inhibitory activity of compounds on BaF3 cell lines stably transfected with kinase (MTS, 48 h)
Format: cell-based
Conditions: BaF3 cells stably transfected with EGFR Δ19Del/T790M, read-out: IC50, growth inhibition, Δ19Del/T790M
Description: The activity of compounds against various mutants of kinase EGFR was evaluated by their effect of inhibiting growth of BaF3 cell lines stably transfected with kinase. The specific test method was given as follows: […] 3) Compound test: cells were incubated into a 96-well culture plate, the volume of cytosol was 90 µL, and then 10 µL of the compound at each gradient concentration was added. […] OD values at 490 nm were measured by a microplate reader (VARIOSKAN FLASH, Thermo). […]
pIC50: −log10 of the molar value.
property.label: pIC50

So, CCc1cc(Nc2ncc(OC)c(Nc3ccc4nccnc4c3N(C)S(C)(=O)=O)n2)c(OC)cc1N1CCN(C)CC1 [Compound I-283] ? Its pIC50 was ≥ 7.30

So, CCc1cc(Nc2ncc(C(F)(F)F)c(Nc3ccc4nccnc4c3N(C)S(C)(=O)=O)n2)c(OC)cc1N1CCN(C)CC1 [Compound I-208] ? Its pIC50 was ≥ 7.30

So, COc1nc(N2CCN(C)CC2)ccc1Nc1ncc(Br)c(Nc2ccc3nccnc3c2N(C)S(C)(=O)=O)n1 [Compound I-55] ? Its pIC50 was 6.30 to 7.30

###

target: various mutants of kinase EGFR (BaF3 cell lines stably transfected with kinase) (Homo sapiens, UniProt P00533); construct: other: BaF3 cells stably transfected with EGFR Δ19Del; MTS, 48 h; other: BaF3 cell line stably transfected with EGFR Δ19Del; test: Growth inhibitory activity of compounds on BaF3 cell lines stably transfected with kinase (MTS, 48 h); assay type: cell-based; conditions: BaF3 cells stably transfected with EGFR Δ19Del, read-out: IC50, growth inhibition, Δ19Del
Sequence (P00533 with tags, fused parts or gaps DEL746-750): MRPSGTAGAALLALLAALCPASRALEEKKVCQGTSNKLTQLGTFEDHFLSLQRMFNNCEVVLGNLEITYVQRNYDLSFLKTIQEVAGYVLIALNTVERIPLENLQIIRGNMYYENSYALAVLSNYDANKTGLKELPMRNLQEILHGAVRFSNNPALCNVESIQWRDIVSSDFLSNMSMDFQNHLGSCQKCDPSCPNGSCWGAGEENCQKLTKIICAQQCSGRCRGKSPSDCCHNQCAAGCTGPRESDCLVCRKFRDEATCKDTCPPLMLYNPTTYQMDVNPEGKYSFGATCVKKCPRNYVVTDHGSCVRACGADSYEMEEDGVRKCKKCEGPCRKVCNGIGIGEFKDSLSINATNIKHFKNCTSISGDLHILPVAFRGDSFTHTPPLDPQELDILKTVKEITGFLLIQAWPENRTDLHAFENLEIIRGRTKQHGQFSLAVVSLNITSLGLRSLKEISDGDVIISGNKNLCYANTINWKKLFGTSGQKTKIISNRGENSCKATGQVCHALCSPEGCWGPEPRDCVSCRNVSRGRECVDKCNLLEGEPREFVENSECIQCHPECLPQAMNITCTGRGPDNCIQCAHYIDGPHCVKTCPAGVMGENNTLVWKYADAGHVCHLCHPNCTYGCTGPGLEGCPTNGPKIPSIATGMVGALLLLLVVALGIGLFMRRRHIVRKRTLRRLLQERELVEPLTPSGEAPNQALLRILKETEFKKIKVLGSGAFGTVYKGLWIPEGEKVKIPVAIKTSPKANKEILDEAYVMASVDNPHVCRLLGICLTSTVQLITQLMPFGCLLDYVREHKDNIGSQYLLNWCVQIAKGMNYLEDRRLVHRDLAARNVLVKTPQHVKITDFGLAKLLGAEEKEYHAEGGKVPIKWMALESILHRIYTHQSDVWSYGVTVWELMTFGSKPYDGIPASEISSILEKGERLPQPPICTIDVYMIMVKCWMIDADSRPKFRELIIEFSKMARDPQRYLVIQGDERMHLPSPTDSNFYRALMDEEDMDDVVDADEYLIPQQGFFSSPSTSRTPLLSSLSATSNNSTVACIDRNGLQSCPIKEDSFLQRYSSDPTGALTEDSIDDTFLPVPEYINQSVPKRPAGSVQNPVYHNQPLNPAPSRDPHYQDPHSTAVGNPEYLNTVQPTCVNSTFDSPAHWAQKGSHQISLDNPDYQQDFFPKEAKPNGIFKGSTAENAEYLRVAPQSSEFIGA
Entries and their measured IC50 follow.

Examples from the recorded data:
>  <smiles>
C=Cc1cc(Nc2ncc(Br)c(Nc3ccc4nccnc4c3N(CC)S(C)(=O)=O)n2)c(OC(F)(F)F)cc1N1CCC(N2CCN(C)CC2)CC1

>  <result>
50 to 500 nM

$$$$
>  <smiles>
CCc1cc(Nc2ncc(Cl)c(Nc3ccc4nccnc4c3N(C)S(=O)(=O)C(F)(F)F)n2)c(OC)cc1N1CCC(N2CCN(C)CC2)CC1

>  <result>
50 to 500 nM

$$$$
>  <smiles>
CCc1cc(Nc2ncc(OC)c(Nc3ccc4nccnc4c3N(C)S(C)(=O)=O)n2)c(OC)cc1N1CCC(N(C)C)CC1

>  <result>
≤ 50 nM

$$$$
>  <smiles>
CCc1cc(Nc2ncc(F)c(Nc3ccc4nccnc4c3N(C)S(C)(=O)=O)n2)c(OC)cc1N1CCC(N2CCN(C)CC2)CC1

>  <result>
≤ 50 nM

$$$$
>  <smiles>
CCc1cc(Nc2ncc(Cl)c(Nc3ccc4nccnc4c3N(C)S(=O)(=O)C3CC3)n2)c(OC)cc1N1CCC(N(C)C)CC1

>  <result>
≤ 50 nM

$$$$

Here is the next item to consider.
So, CCc1cc(Nc2ncc(Cl)c(Nc3ccc4nccnc4c3N(C)S(C)(=O)=O)n2)c(OC)cc1N1CCC(N2CCN(C)CC2)CC1 ? Its IC50 was ≤ 50 nM
